Experiment: chemical genetic growth profiling, strain panel (AID 1159580);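 also: tested at 20 µM; growth read once vehicle control cultures reached saturation at 30 °C; 1 = growth at the plate median or of vehicle wells; lower values mean less growth of the strain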
Settings: S. cerevisiae deletion strains, growth OD, locus YGL248W, strain PDE1, stronger effect = lower value
About 2,000 (36%) of roughly 5,500 compounds were called active. Roughly 18% stayed inconclusive and do not appear here. Some of the results follow.
quantity: normalized growth

[
  {
    "compound": "CC[C@H]1CN2CCC1C[C@@H]2[C@@H](O)c1ccnc2ccc(OC)cc12 (stereo partly drawn)",
    "experimental-result": 0.997
  },
  {
    "compound": "COc1cccc2c1CCC1=CC(=O)CC[C@@]12C",
    "experimental-result": 0.996
  },
  {
    "compound": "COC1=CC(C)[C@@H]2C[C@H]3OC(=O)C[C@H]4C(C)=C(OC)C(=O)C([C@@]34C)[C@@]2(C)C1=O (stereo partly drawn)",
    "experimental-result": 1.03
  },
  {
    "compound": "NC(=O)c1cc([N+](=O)[O-])cc([N+](=O)[O-])c1",
    "experimental-result": 1.02
  },
  {
    "compound": "NC(=O)c1ccc([N+](=O)[O-])cc1Cl",
    "experimental-result": 0.973
  },
  {
    "compound": "C[C@@H](CO)NC(=O)C1C=C2c3cccc4[nH]cc(c34)C[C@H]2N(C)C1 (stereo partly drawn)",
    "experimental-result": 0.993
  },
  {
    "compound": "Nc1nc(/C(=C/CC(=O)O)C(=O)N[C@@H]2C(=O)N3C(C(=O)O)=CCS[C@H]23)cs1",
    "experimental-result": 0.978
  },
  {
    "compound": "Cc1cc(N)c2ccccc2[n+]1CCCCCCCCCC[n+]1c(C)cc(N)c2ccccc21",
    "experimental-result": 0.0477
  },
  {
    "compound": "COc1ccccc1N1CCN(CCCNc2cc(=O)n(C)c(=O)n2C)CC1",
    "experimental-result": 0.974
  },
  {
    "compound": "COc1cc(C(=O)N2CCOCC2)cc(OC)c1OC",
    "experimental-result": 1.01
  },
  {
    "compound": "Cc1ccc(C(C)C)c(O)c1C(=O)O",
    "experimental-result": 0.995
  },
  {
    "compound": "C/C=C/CC(C)C(O)C1C(=O)NC(CC)C(=O)N(C)CC(=O)N(C)C(CC(C)C)C(=O)NC(C(C)C)C(=O)N(C)C(CC(C)C)C(=O)NC(C)C(=O)NC(C)C(=O)N(C)C(CC(C)C)C(=O)N(C)C(CC(C)C)C(=O)N(C)C(C(C)C)C(=O)N1C (stereo not drawn)",
    "experimental-result": 0.985
  },
  {
    "compound": "CC(C)Nc1nc(Cl)nc(NC(C)C)n1",
    "experimental-result": 1.01
  },
  {
    "compound": "NC[C@@H]1O[C@H](O[C@@H]2[C@@H](CO)OC(O[C@@H]3[C@@H](O)[C@H](N)C[C@H](N)[C@H]3O[C@H]3O[C@H](CO)[C@@H](O)[C@H](O)[C@H]3N)[C@@H]2O)[C@H](N)[C@@H](O)[C@@H]1O (stereo partly drawn)",
    "experimental-result": 0.969
  },
  {
    "compound": "COC(=O)[C@H]1[C@H]2C[C@H]3c4[nH]c5cc(OC)ccc5c4CCN3C[C@H]2C[C@@H](OC(=O)c2cc(OC)c(OC)c(OC)c2)[C@@H]1OC",
    "experimental-result": 0.987
  },
  {
    "compound": "CC(=O)O[C@@H]1CC2C(C)(C)CCC[C@]2(C)C2CC[C@]3(C)C(=CC(=O)O[C@H]3c3ccoc3)[C@@]21C (stereo partly drawn)",
    "experimental-result": 1.01
  },
  {
    "compound": "C[C@]12CCC(=O)C=C1CCc1ccc(O)cc12",
    "experimental-result": 0.996
  },
  {
    "compound": "COC1CC(O[C@H]2CC[C@]3(C=O)C4CC[C@]5(C)C(C6=CC(=O)OC6)CC[C@]5(O)C4CC[C@]3(O)C2)OC(C)C1O (stereo partly drawn)",
    "experimental-result": 1.01
  },
  {
    "compound": "CC[C@@]1(O)C(=O)OCc2c1cc1n(c2=O)Cc2cc3ccccc3nc2-1",
    "experimental-result": 0.879
  },
  {
    "compound": "CC(=O)Oc1ccccc1C(=O)Oc1ccccc1C(=O)O",
    "experimental-result": 0.992
  },
  {
    "compound": "O=C(CCCN1CCC(O)(c2ccc(Cl)cc2)CC1)c1ccc(F)cc1",
    "experimental-result": 0.661
  },
  {
    "compound": "NCCCN",
    "experimental-result": 1.01
  },
  {
    "compound": "CCCc1nn(C)c2c(=O)[nH]c(-c3cc(S(=O)(=O)N4CCN(C)CC4)ccc3OCC)nc12",
    "experimental-result": 1.02
  },
  {
    "compound": "CC1CCCC(C)N1NC(=O)c1ccc(Cl)c(S(N)(=O)=O)c1 (stereo not drawn)",
    "experimental-result": 1
  },
  {
    "compound": "COC(=O)C(N)CS (stereo not drawn)",
    "experimental-result": 0.959
  },
  {
    "compound": "CC(=O)N1CCCC1C(=O)O (stereo not drawn)",
    "experimental-result": 1.01
  },
  {
    "compound": "CC(=O)N1CCN(c2ccc(OCC3CO[C@](Cn4ccnc4)(c4ccc(Cl)cc4Cl)O3)cc2)CC1 (stereo partly drawn)",
    "experimental-result": 0.0653
  },
  {
    "compound": "NC(N)=Nc1ccc(Cl)cc1",
    "experimental-result": 1.01
  },
  {
    "compound": "CC1(C)[C@@H]2CC[C@@]1(C)C(=O)C2",
    "experimental-result": 0.99
  },
  {
    "compound": "CC[C@@]1(O)C(=O)OCc2c1cc1n(c2=O)Cc2cc3cc(O)ccc3nc2-1",
    "experimental-result": 1.03
  },
  {
    "compound": "COC1=CC(=O)C=C(OC)C1=O",
    "experimental-result": 0.996
  },
  {
    "compound": "Oc1ccc2c3c1OC1[C@@H](O)CC[C@@]4(O)[C@@H](C2)N(CC2CCC2)CC[C@]314 (stereo partly drawn)",
    "experimental-result": 1.02
  },
  {
    "compound": "NC[C@H]1O[C@H](O[C@H]2[C@H](O)[C@@H](O[C@H]3O[C@H](CO)[C@@H](O)[C@H](N)[C@H]3O)[C@H](N)C[C@@H]2N)[C@H](N)[C@@H](O)[C@@H]1O",
    "experimental-result": 1.02
  },
  {
    "compound": "Cc1c(C(N)=O)cc([N+](=O)[O-])cc1[N+](=O)[O-]",
    "experimental-result": 1
  },
  {
    "compound": "COc1ccc(-c2cc(=O)c3c(O)cc(O)cc3o2)cc1",
    "experimental-result": 0.984
  },
  {
    "compound": "CC(=O)OCC(=O)[C@@]1(O)CCC2C3C[C@H](C)C4=CC(=O)C=CC4(C)C3[C@@H](O)CC21C (stereo partly drawn)",
    "experimental-result": 1
  },
  {
    "compound": "CC1=C2C(O)C(=O)OC3CC4C(C)(C)C(=O)C=C[C@]4(C)C(CC1)[C@]23C (stereo partly drawn)",
    "experimental-result": 1.02
  },
  {
    "compound": "NCC(O)CC(=O)O (stereo not drawn)",
    "experimental-result": 1.01
  },
  {
    "compound": "O=C(O)c1ccccc1O",
    "experimental-result": 1
  },
  {
    "compound": "NC(=O)c1ccccc1O",
    "experimental-result": 1
  },
  {
    "compound": "CC1(C)S[C@@H]2[C@H](NC(=O)[C@@H](N)c3ccc(O)cc3)C(=O)N2[C@H]1C(=O)O",
    "experimental-result": 1.02
  },
  {
    "compound": "CSc1nc(NC(C)C)nc(NC(C)C)n1",
    "experimental-result": 1.01
  },
  {
    "compound": "CC1(C)O[C@@H]2CC3C4C[C@H](F)C5=CC(=O)CC[C@]5(C)C4[C@@H](O)C[C@]3(C)[C@]2(C(=O)CO)O1 (stereo partly drawn)",
    "experimental-result": 1.01
  }
]

meta.source: PubChem BioAssay AID1159580
